tested on: MP-1 mouse prostate epithelial cell line; assay: Cell cytotoxicity assay (CellTiter-Glo, ATP-luciferase); settings: MP-1, 20 μM, 72 hours, compounds replenished daily

Compound	cellular toxicity (cell viability)
O=C1C=CC(=O)N1c1cccc([N+](=O)[O-])c1	without affecting
Cc1ccc(OCc2nnc(NC(=O)Nc3cccc(Cl)c3)s2)cc1C	without affecting
O=C1c2c(O)cccc2Cc2cccc(O)c21 [Compound 15, 1,8-dihydroxyanthracen-9(10H)-one, reference compound]	toxic

* * *

target: recombinant human hepsin (Homo sapiens, UniProt P05981); test: Hepsin activity assay (chromogenic substrate pyroGlu-Pro-Arg-pNA); type: biochemical; conditions: 30 minutes preincubation at room temperature, substrate at Km
Sequence (P05981 1-162 limits assumed): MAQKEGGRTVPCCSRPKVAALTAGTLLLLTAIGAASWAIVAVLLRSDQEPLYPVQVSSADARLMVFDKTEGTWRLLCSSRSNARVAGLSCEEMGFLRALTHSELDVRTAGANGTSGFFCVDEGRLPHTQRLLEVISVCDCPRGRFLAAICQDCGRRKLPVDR
Sequence (P05981 163-417 limits assumed): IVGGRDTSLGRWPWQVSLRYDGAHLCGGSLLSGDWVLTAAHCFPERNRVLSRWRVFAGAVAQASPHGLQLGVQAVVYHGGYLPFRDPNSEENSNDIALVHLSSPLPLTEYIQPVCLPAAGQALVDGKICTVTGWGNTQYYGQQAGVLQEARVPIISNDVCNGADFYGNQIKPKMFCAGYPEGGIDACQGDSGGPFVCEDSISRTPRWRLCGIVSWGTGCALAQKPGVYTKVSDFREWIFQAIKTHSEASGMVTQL
pIC50: −log10 of the molar value.
// no strictly below 6 in pIC50; yes otherwise

Compound	Cat
Cc1cccc(C2Nc3cccc4cccc(c34)N2)c1 [Compound 4]	yes
O=C1C=CC(=O)N1c1cccc([N+](=O)[O-])c1 [Compound 1, 1-(3-nitrophenyl)-1H-pyrrole-2,5-dione]	yes
O=C1NC(=O)N(c2cccc(Br)c2)C(=O)/C1=C/c1c[nH]c2ccccc12 [Compound 3]	no
O=c1oc(-c2cccc(F)c2)nc2ccc(Cc3ccc4nc(-c5cccc(F)c5)oc(=O)c4c3)cc12 [Compound 7]	no
Cc1cccc(CN2CCN(C(c3ccccc3)c3ccc(Cl)cc3)CC2)c1 (centres unmarked) [Compound 13, reference compound]	no
O=C(Nc1ccc(-c2nc3ccccc3o2)c(O)c1)c1ccc(-c2cccc([N+](=O)[O-])c2)o1 [Compound 12]	yes
O=[N+]([O-])c1ccc(C2Nc3c(cccc3C(F)(F)F)C3C=CCC32)cc1 (centres unmarked) [Compound 5]	yes
